observable: melting point (°C)

Recorded melting point, per entry:
CC(C)c1ccc(COc2ccc(-c3c(-c4ccncc4)nn4c3NCCC4)cc2)cc1    205
CC(C)c1ccc(COc2ccc(-c3c(-c4ccncc4)nn4c3N(CCO)C(=O)CC4)cc2)cc1    205
CC(C)c1ccc(COc2ccc(-c3c(-c4ccncc4)nn4c3NCC4)cc2)c(F)c1F    149
CC(C)c1ccc(COc2ccc(-c3c(-c4ccncc4)nn4cccnc34)c(F)c2)cc1    187
CC(C)c1ccc(COc2ccc(-c3c(-c4ccncc4)nn4c3NCCC4)c(F)c2)cc1    188
CC(C)c1ccc(COc2ccc(-c3c(-c4ccncc4)nn4c3N(CCO)CCC4)cc2)cc1    147

I = c1cc(-c2nn3c(c2-c2ccc(OCc4ccc(C5CC5)cc4)cc2)NCC3)ccn1
II = CC(C)c1ccc(COc2ccc(-c3c(-c4ccncc4)nn4c3NC(=O)CC4)cc2)cc1
[ask] Select the item with the higher value of melting point from the options I and II listed. Your answer should be the label of the entry you select.
[reply] II
(II: 290 °C, I: 159 °C)

Origin of measurements: patent US10342795B2
